target: Recombinant human Gal3 (rhGal3) (TrueBinding, #QC200361) (human, UniProt P17931 2-250); test: cell-based or functional assay; also: test concentration or dose not given here
Below, each of the binders is paired with its reported % inhibition of IL-6 secretion value.

binder	reading_unit	% inhibition of IL-6 secretion
F849C.8D10 (antibody, human IgG4 S228P, kappa, V domains shown) VH: QVQLQQTGAELVKPGASVKLSCKASGYTFTSYWINWVKQRPGQGLEWIGNIYPGSSSIYYSEKFKSKATLTVDTSSSTAYMQLSSLTSDDSAVYYCARWGYWGQGTTLTVSS VL: DVLMTQTPLSLPVSLGDQASISCRSSQDIVHSSGNTYLEWYLQKPGQSLKLLIYKVSNRFSGVPDRFSASGSGTDFTLKISRVEAEDLGVYYCFQGSHVPPTFGSGTKLEIKR	%	-75.8
F846TC.16B5 (antibody, human IgG4 S228P, kappa, V domains shown) VH: QIQLVQSGPELKKPGETVKISCKASGYTFTNYGMNWVKQAPGKGLKWMGWINTYTGEPAYADDFKGRFAFSLETSASTAYLQINNLKNEDMATYFCARWGGYDGDYYAMDYWGQGTSVTVSS VL: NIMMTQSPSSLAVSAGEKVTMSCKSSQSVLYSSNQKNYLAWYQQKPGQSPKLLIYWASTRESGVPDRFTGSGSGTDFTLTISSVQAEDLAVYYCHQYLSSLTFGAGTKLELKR	%	-204
15F10.2D6 (antibody, mouse IgG2a, V domains shown) VH: EVQLVESGGGLVKPGGSLKLSCAASGFAFSSYAMSWVRQTPEKRLEWVATISDGGVYTYYTDHVKGRFTISRDNAEDNLYLQMSHLKSEDTAMYYCVRDGGYWGQGTTLTVSS VL: DVLMTQTPLSLPVSLGDQASISCRSSQSIVHNNGNTYLEWYLQKPGQSPKLLIYKVSNRFSGVPDRFSGSGSGTDFTLKISRVEAEDLGVYYCFQGSHVPLTFGGGTKLELKR	%	51.5
23H9.2E4 (antibody, mouse IgG2a, V domains shown) VH: QIQLVQSGPELKKPGETVKISCKASGYTFTTYAMSWVKQAPGKGLKWMGWINTYSGVPTYADDLKGRFAFSLETSASTAYLQINNLKNEDTATYFCARGPYAMDYWGQGTSVTVSS VL: DIQMTQTTSSLSASLGDRVTISCSASQGINNYLNWYQQKPDGTVKLLIYYASSLHSGVPSRFSGSGSGTDYSLTISNLEPEDIATYYCQQYSQVPYTFGSGTKLEIKR	%	92.6
847.3B3 (antibody, V domains shown) VH: QVQLKESGPGLVAPSQSLSITCTVSGFSLTSYGVHWIRQPPGKGLEWLGGIWAGGSTDYNSPLMSRLSITKDNSKSQVFLKMNSLQSDDTAMYYCASPPSGYDYDVFAYWGQGTLVTVSA VL: DILMTQSPASLSASVGETVTITCRASGNIHNYLAWYQQKQGKSPQLLVYSAKTLADGVPSRFSGSGSGTQFSLKIDSLQPEDFGTYYCQHFWSLFPTFGGGTKLEIK	%	72.3
F846C.2H3 (antibody, human IgG4 S228P, kappa, V domains shown) VH: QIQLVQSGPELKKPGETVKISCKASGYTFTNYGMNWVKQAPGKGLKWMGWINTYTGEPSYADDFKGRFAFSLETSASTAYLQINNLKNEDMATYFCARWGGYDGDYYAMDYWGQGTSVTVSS VL: NIMMTQSPSSLAVSAGEKVTMSCKSSQSVLYSSNQKNYLAWYQQKPGQSPKLLIYWASTRESGVPDRFTGSGSGTDFTLTISSVQPEDLAVYYCHQYLSSLTFGAGTKLELKR	%	-49.1
F846C.1B2 (antibody, human IgG4 S228P, kappa, V domains shown) VH: QIQLVQSGPELKKPGETVKISCKASGYTFTNYGMNWVKQAPGKGLKWMGWINTYTGEPSYADDFKGRFAFSLETSASTAYLQINNLKNEDMATYFCARWGGYAGDYYAMDFWGQGTSVTVSS VL: NIWLTQSPSSLAVSAGEMVTMTCKSSQSVLYSSNQKNYLAWYQQKPGQSPKLLIYWASTRESGVPDRFTGSGSGTDFSLTISSVQAEDLAVYYCHQYLSSLTFGAGTKLELKR	%	-9

Just for reference, patent US20250243282A1 is where these values come from.
